Tested on: Serratia marcescens
Test: Antimicrobial activity against beta-lactamase AmpC producing meropenem-resistant Serratia marcescens by agar dilution method
Type: functional
Readout: MIC

Answered cases to consult:
Qu. Write down MIC measured for item C[C@@H](O)[C@H]1C(=O)N2C(C(=O)O)=C(SCCNC=N)C[C@H]12 [IMIPENEM ANHYDROUS]
Ans. 0.12 µg/mL

Qu. Write down MIC measured for item C[C@H]1[C@H](NC(=O)/C(=N\OC(C)(C)C(=O)O)c2csc(N)n2)C(=O)N1S(=O)(=O)O [AZTREONAM]
Ans. 8 µg/mL

Qu. Write down MIC measured for item C[C@@H](O)[C@H]1C(=O)N2C(C(=O)O)=C(S[C@@H]3CN[C@H](C(=O)N(C)C)C3)[C@H](C)[C@H]12 [MEROPENEM]
Ans. 0.015 µg/mL

Qu. Write down MIC measured for item CCN1CCN(C(=O)N[C@@H](C(=O)N[C@@H]2C(=O)N3[C@@H]2SC(C)(C)[C@@H]3C(=O)O)c2ccccc2)C(=O)C1=O [PIPERACILLIN]
Ans. > 256 µg/mL

Qu. Write down MIC measured for item CC(C)(O/N=C(\C(=O)N[C@@H]1C(=O)N2C(C(=O)[O-])=C(C[n+]3ccccc3)CS[C@H]12)c1csc(N)n1)C(=O)O [CEFTAZIDIME]
Ans. 2 µg/mL

Qu. Write down MIC measured for item O=C(O)c1cn(C2CC2)c2cc(N3CCNCC3)c(F)cc2c1=O [CIPROFLOXACIN]
Ans. ≤ 0.12 µg/mL

Qu. Write down MIC measured for item CO/N=C(\C(=O)N[C@@H]1C(=O)N2C(C(=O)O)=C(COC(C)=O)CS[C@H]12)c1csc(N)n1 [CEFOTAXIME]
Ans. 32 µg/mL

We next turn to a different compound, shown below.
Qu. Write down MIC measured for item CO[C@@]1(NC(=O)Cc2cccs2)C(=O)N2C(C(=O)O)=C(COC(N)=O)CS[C@@H]21 [CEFOXITIN]
Ans. 4 µg/mL
